System: Streptococcus pneumoniae
Assay: Antimicrobial activity against Streptococcus pneumoniae by agar dilution method
Type: functional
I'd be grateful if you could share measured MIC for these entries.
Output spec: scalar in µg/mL, unitless text.

Given the compound O=C(c1cccc([N+](=O)[O-])c1)N1CCN(c2ccc(N3C[C@H](Cn4ccnn4)OC3=O)cc2F)CC1 , what is its reported MIC?
0.25

What value of MIC has been reported for the following compound? CN[C@H](CC(C)C)C(=O)N[C@H]1C(=O)N[C@@H](CC(N)=O)C(=O)N[C@H]2C(=O)N[C@H]3C(=O)N[C@H](C(=O)N[C@H](C(=O)O)c4cc(O)cc(O)c4-c4cc3ccc4O)[C@H](O)c3ccc(c(Cl)c3)Oc3cc2cc(c3O[C@@H]2O[C@H](CO)[C@@H](O)[C@H](O)[C@H]2O[C@H]2C[C@](C)(N)[C@H](O)[C@H](C)O2)Oc2ccc(cc2Cl)[C@H]1O
0.5

Entry O=C(c1ccc(F)cc1)N1CCN(c2ccc(N3C[C@H](Cn4ccnn4)OC3=O)cc2F)CC1 has what MIC?
0.5

I would be grateful if you could share the reported MIC for O=C(/C=C/c1ccccc1)N1CCN(c2ccc(N3C[C@H](Cn4ccnn4)OC3=O)cc2F)CC1 .
1

Which value of MIC has been reported for O=C(c1ccncc1)N1CCN(c2ccc(N3C[C@H](Cn4ccnn4)OC3=O)cc2F)CC1 in the records?
1

Recorded MIC of O=C(c1ccco1)N1CCN(c2ccc(N3C[C@H](Cn4ccnn4)OC3=O)cc2F)CC1 , please.
0.25

Give its MIC value. Item: O=C(c1cccc(F)c1)N1CCN(c2ccc(N3C[C@H](Cn4ccnn4)OC3=O)cc2F)CC1
0.5

Fill blank: measured MIC of the compound Cc1cccc(C(=O)N2CCN(c3ccc(N4C[C@H](Cn5ccnn5)OC4=O)cc3F)CC2)c1 is ____.
1

// query MIC value for entry O=C(c1ccccc1[N+](=O)[O-])N1CCN(c2ccc(N3C[C@H](Cn4ccnn4)OC3=O)cc2F)CC1
0.5

MIC for O=C(c1cccs1)N1CCN(c2ccc(N3C[C@H](Cn4ccnn4)OC3=O)cc2F)CC1 ?
0.25

Fill blank: measured MIC of the compound O=C(c1ccc(Cl)cc1)N1CCN(c2ccc(N3C[C@H](Cn4ccnn4)OC3=O)cc2F)CC1 is ____.
1

Suppose we examine the compound O=C(Cc1ccccc1)N1CCN(c2ccc(N3C[C@H](Cn4ccnn4)OC3=O)cc2F)CC1 ; what MIC value has been reported?
0.5

Recorded MIC for COc1ccc(C(=O)N2CCN(c3ccc(N4C[C@H](Cn5ccnn5)OC4=O)cc3F)CC2)cc1 , please?
0.5

Fill in: MIC of O=C(c1ccccc1Cl)N1CCN(c2ccc(N3C[C@H](Cn4ccnn4)OC3=O)cc2F)CC1 is ___
4

Requested read-out: MIC. Entry: O=C(c1ccccc1F)N1CCN(c2ccc(N3C[C@H](Cn4ccnn4)OC3=O)cc2F)CC1
1

For the compound O=C(c1cccnc1Cl)N1CCN(c2ccc(N3C[C@H](Cn4ccnn4)OC3=O)cc2F)CC1 , what MIC is on record?
1

What value of measured MIC is listed for Cc1ccc(C(=O)N2CCN(c3ccc(N4C[C@H](Cn5ccnn5)OC4=O)cc3F)CC2)cc1 ?
2

Please report the recorded MIC for Cc1ccccc1C(=O)N1CCN(c2ccc(N3C[C@H](Cn4ccnn4)OC3=O)cc2F)CC1 .
1

Which MIC value is on record for O=C(C(=O)N1CCN(c2ccc(N3C[C@H](Cn4ccnn4)OC3=O)cc2F)CC1)c1cccs1 ?
0.25

Value lookup for MIC; key = O=C(c1ccccc1)N1CCN(c2ccc(N3C[C@H](Cn4ccnn4)OC3=O)cc2F)CC1
1

Which MIC is reported for this compound? O=C(c1cccnc1)N1CCN(c2ccc(N3C[C@H](Cn4ccnn4)OC3=O)cc2F)CC1
0.5

What value of MIC has been reported for the following compound? Cc1ccc(S(=O)(=O)N2CCN(c3ccc(N4C[C@H](Cn5ccnn5)OC4=O)cc3F)CC2)cc1
2

I would be grateful if you could share the reported MIC for O=C(c1ccc([N+](=O)[O-])cc1)N1CCN(c2ccc(N3C[C@H](Cn4ccnn4)OC3=O)cc2F)CC1 .
1

Entry Cc1cccc(S(=O)(=O)N2CCN(c3ccc(N4C[C@H](Cn5ccnn5)OC4=O)cc3F)CC2)c1 : reported MIC = ?
2

For the compound shown here, O=C(/C=C/c1ccccc1Cl)N1CCN(c2ccc(N3C[C@H](Cn4ccnn4)OC3=O)cc2F)CC1 , give the reported MIC.
4
